Assembled from different publications: Ki for Adenosine receptor A3 (Rattus norvegicus, UniProt P28647).
measured_attribute: Ki (nM)

[
  {
    "compound": "CCNC(=O)[C@H]1OC(n2cnc3c(NCCCCNS(=O)(=O)c4cccc5c(N(C)C)cccc45)ncnc32)[C@H](O)[C@@H]1O (some centres undefined)",
    "measure_unit": "nM",
    "operator": "=",
    "recorded_measurement": 2000
  },
  {
    "compound": "CCOc1c2ccoc2cc2oc(/C=C/c3ccccc3)cc(=O)c12",
    "measure_unit": "nM",
    "operator": "=",
    "recorded_measurement": 12300
  },
  {
    "compound": "COc1cc(-c2ccccc2)nc2nc(C)ccc12",
    "measure_unit": "nM",
    "operator": ">",
    "recorded_measurement": 10000
  },
  {
    "compound": "CCCOC(=O)c1c(-c2ccccc2)nc(CC)c2c1CCSC2=O",
    "measure_unit": "nM",
    "operator": "=",
    "recorded_measurement": 2580
  },
  {
    "compound": "Cc1ccc2ccc(-c3ccccc3)nc2n1",
    "measure_unit": "nM",
    "operator": ">",
    "recorded_measurement": 10000
  },
  {
    "compound": "CCCCn1c(=O)c2nc(CCC(=O)O)[nH]c2n(CCCC)c1=O",
    "measure_unit": "nM",
    "operator": "=",
    "recorded_measurement": 129000
  },
  {
    "compound": "C[C@H](Cc1ccccc1)Nc1ncnc2c1ncn2[C@@H]1O[C@H](CO)[C@@H](O)[C@@]1(C)O",
    "measure_unit": "nM",
    "operator": "=",
    "recorded_measurement": 1080
  },
  {
    "compound": "CNc1nc(C#N)nc2c1ncn2[C@@H]1O[C@H](CO)[C@@H](O)[C@H]1O",
    "measure_unit": "nM",
    "operator": ">",
    "recorded_measurement": 10000
  },
  {
    "compound": "CCNC(=O)[C@H]1OC(n2cnc3c(NCCCCCCCCCCCCNS(=O)(=O)c4cccc5c(N(C)C)cccc45)ncnc32)[C@H](O)[C@@H]1O (some centres undefined)",
    "measure_unit": "nM",
    "operator": "=",
    "recorded_measurement": 2500
  },
  {
    "compound": "CCNC(=O)[C@H]1O[C@@H](n2cnc3c(NC(=O)NCCc4ccc(OC)c(OC)c4)ncnc32)[C@H](O)[C@@H]1O",
    "measure_unit": "nM",
    "operator": "=",
    "recorded_measurement": 411
  },
  {
    "compound": "COc1ccc(-n2c(-c3sc(NC(=O)c4ccco4)nc3-c3ccccc3)nc3ccccc3c2=O)cc1",
    "measure_unit": "nM",
    "operator": "=",
    "recorded_measurement": 973
  },
  {
    "compound": "CCCCn1c(=O)c2nc[nH]c2n(Cc2ccccc2)c1=O",
    "measure_unit": "nM",
    "operator": "=",
    "recorded_measurement": 74200
  },
  {
    "compound": "OC[C@H]1O[C@@H](n2cnc3c(NC4CC4c4ccccc4)ncnc32)[C@H](O)[C@@H]1O (some centres undefined)",
    "measure_unit": "nM",
    "operator": "=",
    "recorded_measurement": 400
  },
  {
    "compound": "CCNC(=O)[C@H]1O[C@@H](n2cnc3c(NC(=O)Nc4cccc(Cl)c4)nc(I)nc32)[C@H](O)[C@@H]1O",
    "measure_unit": "nM",
    "operator": "=",
    "recorded_measurement": 315
  },
  {
    "compound": "CCCCn1c(=O)c2c(nc(/C=C/C(=O)O)n2C)n(CCCC)c1=O",
    "measure_unit": "nM",
    "operator": "=",
    "recorded_measurement": 127000
  },
  {
    "compound": "Cc1ccc2c(N=[N+]=[N-])cc(-c3ccccc3)nc2n1",
    "measure_unit": "nM",
    "operator": ">",
    "recorded_measurement": 10000
  },
  {
    "compound": "O[C@@H]1[C@H](O)[C@@H]2C[C@@H]2[C@H]1n1cnc2c(NCc3cccc(Cl)c3)ncnc21",
    "measure_unit": "nM",
    "operator": "=",
    "recorded_measurement": 20.3
  },
  {
    "compound": "CCCn1c(=O)c2nc(-c3ccc(OCC(=O)NCCNC(=O)CN(CC(=O)O)C(=O)OCC4c5ccccc5-c5ccccc54)cc3)[nH]c2n(CCC)c1=O",
    "measure_unit": "nM",
    "operator": "=",
    "recorded_measurement": 21700
  },
  {
    "compound": "CNc1nc(-n2cc(-c3ccccn3)nn2)nc2c1ncn2[C@@H]1O[C@H](CO)[C@@H](O)[C@H]1O",
    "measure_unit": "nM",
    "operator": ">",
    "recorded_measurement": 10000
  }
]

====

Target or system Adenosine receptor A3 (Rattus norvegicus); metric Ki; compiled from varied reports.
Doc: threshold 9 µM (exclusive). Items with Ki beneath it return 1; others return -1.

[
  {
    "compound": "CCCn1c(=O)c2nc(-c3ccc(C(=O)O)cc3)[nH]c2n(CCC)c1=O",
    "system": "Adenosine receptor A3 (Rattus norvegicus)",
    "group": -1
  },
  {
    "compound": "CCNC(=O)[C@H]1O[C@@H](n2cnc3c(NC(=O)Nc4ccc(S(=O)(=O)Nc5ncccn5)cc4)ncnc32)[C@H](O)[C@@H]1O",
    "system": "Adenosine receptor A3 (Rattus norvegicus)",
    "group": 1
  },
  {
    "compound": "COc1cc(-c2ccccc2)nc2c1ccc(=O)n2C",
    "system": "Adenosine receptor A3 (Rattus norvegicus)",
    "group": -1
  },
  {
    "compound": "COc1ccc(C(=O)Nc2nc(-c3ccccn3)cc3ccccc23)cc1",
    "system": "Adenosine receptor A3 (Rattus norvegicus)",
    "group": 1
  },
  {
    "compound": "CCNC(=O)[C@H]1O[C@@H](n2cnc3c(NC(=O)NCc4ccco4)ncnc32)[C@H](O)[C@@H]1O",
    "system": "Adenosine receptor A3 (Rattus norvegicus)",
    "group": 1
  },
  {
    "compound": "CCCCC#Cc1nc(NC2CCCC2)c2ncn([C@H]3[C@H](O)[C@H](O)[C@@H]4C[C@@H]43)c2n1",
    "system": "Adenosine receptor A3 (Rattus norvegicus)",
    "group": 1
  },
  {
    "compound": "COC(=O)C1=C(C)NC(C)=C(C(=O)OCCN(C)Cc2ccccc2)C1c1cccc([N+](=O)[O-])c1 (centres undefined)",
    "system": "Adenosine receptor A3 (Rattus norvegicus)",
    "group": -1
  },
  {
    "compound": "CSc1sc(C(=O)NN)c2c1C=CCC2",
    "system": "Adenosine receptor A3 (Rattus norvegicus)",
    "group": -1
  }
]
